Data credit: paper PMC5654968

Reported log10 AUC(0-t) is given for each of the following compounds.
MEASUREMENT DESCRIPTION: Plasma PK of major maoto compounds by LC-MS/MS after oral administration of maoto
Assay type: in vivo, rat
STATED CONDITIONS: Sprague-Dawley, rat, plasma, po, 4 g/kg
A difference of one corresponds to tenfold AUC(0-t); all values are log10 with AUC(0-t) in ng·h/mL.

| COMPOUND | log10 AUC(0-t) |
| --- | --- |
| Oc1cc(O)c2c(c1)O[C@H](c1cc(O)c(O)c(O)c1)[C@H](O)C2 [Epigallocatechin] | -0.54 |
| Oc1cc(O)c2c(c1)O[C@H](c1ccc(O)c(O)c1)[C@H](O)[C@H]2c1c(O)cc(O)c2c1O[C@H](c1ccc(O)c(O)c1)[C@H](O)[C@H]2c1c(O)cc(O)c2c1O[C@H](c1ccc(O)c(O)c1)[C@H](O)C2 | 0.23 |
| O=C(/C=C/c1ccc(O)cc1)c1ccc(O)cc1O | 1.77 |
| CC(C(O)c1ccccc1)N(C)C (racemic) | 1.98 |

# ---- query compound ----
*Q* Complete the entry with log10 AUC(0-t) for "O=C1C[C@@H](c2ccc(O[C@@H]3O[C@H](CO)[C@@H](O)[C@H](O)[C@H]3O)cc2)Oc2cc(O)ccc21"
*A* 1.79
